Value source: ChEMBL document CHEMBL2364335

ASSAYED TARGET: Growth hormone secretagogue receptor type 1 (Homo sapiens, UniProt Q92847)
Sequence (Q92847 whole entry): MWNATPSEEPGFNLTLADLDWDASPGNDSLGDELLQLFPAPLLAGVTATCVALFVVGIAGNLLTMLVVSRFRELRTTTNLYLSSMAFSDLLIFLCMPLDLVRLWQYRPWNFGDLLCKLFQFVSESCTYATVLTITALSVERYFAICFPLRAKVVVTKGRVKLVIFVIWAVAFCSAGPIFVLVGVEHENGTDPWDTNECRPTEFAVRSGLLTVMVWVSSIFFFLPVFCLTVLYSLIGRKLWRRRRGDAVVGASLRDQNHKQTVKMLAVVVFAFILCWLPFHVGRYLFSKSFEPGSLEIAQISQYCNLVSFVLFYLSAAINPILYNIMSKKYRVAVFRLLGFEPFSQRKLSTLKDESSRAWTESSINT
TEST DETAILS: SUPPLEMENTARY: Agonist activity at GSHR by FLIPR assay. Same assay as CHEMBL941945
pEC50: −log10 of the molar value.
PROPERTY: pEC50

Take a look at these entries with their results.
In [3]: df
Out[3]:
                                     smiles  property  value_measured
0  COc1ccc(NS(=O)(=O)c2ccc(-c3ccccc3C)s2)cc1N1C[C@@H](C)N[C@@H](C)C1     pEC50            7.30
1  COc1ccc(N2C[C@@H](C)N[C@@H](C)C2)cc1NS(=O)(=O)c1ccc(-c2ccco2)cc1F     pEC50            8.80
2  COc1ccc(N2C[C@@H](C)N[C@@H](C)C2)cc1NS(=O)(=O)c1ccc(-c2cccc(F)c2)s1     pEC50            7.50
3  COc1ccc(NS(=O)(=O)c2ccc(N3CCCC3=O)cc2)cc1N1C[C@@H](C)N[C@@H](C)C1     pEC50            7.10
4  Cc1cc(-c2cccs2)ccc1S(=O)(=O)Nc1cc(N2C[C@@H](C)N[C@@H](C)C2)ccc1F     pEC50            7.70
5  COc1ccc(N2C[C@@H](C)N[C@@H](C)C2)cc1NS(=O)(=O)c1ccc(-c2cccc(C)n2)cc1C     pEC50            8.20
6  COc1ccc(N2C[C@@H](C)N[C@@H](C)C2)cc1NS(=O)(=O)c1ccc(-c2ccco2)cc1Cl     pEC50            9.30
7  COc1ccc(N2C[C@@H](C)N[C@@H](C)C2)cc1NS(=O)(=O)c1ccc(-c2csc(C)n2)s1     pEC50            7.40
8  COc1ccc(N2C[C@@H](C)N[C@@H](C)C2)cc1NS(=O)(=O)c1ccc(-c2ccccc2C)s1     pEC50            7.60
9  COc1ccc(N2C[C@@H](C)N[C@@H](C)C2)cc1NS(=O)(=O)c1ccc(-c2ccc(C)o2)cn1     pEC50            8.50

(A) COc1ccc(N2C[C@@H](C)N[C@@H](C)C2)cc1NS(=O)(=O)c1ccc(-c2nccs2)cc1
(B) Cc1ccc(-c2ccc(S(=O)(=O)Nc3cc(N4C[C@@H](C)N[C@@H](C)C4)ccc3O)cc2)o1
*Q* Compare pEC50: is it lower for A or for B ? To answer, give the label that identifies your chosen option.
*A* A

---

ASSAYED TARGET: Growth hormone secretagogue receptor type 1 (Homo sapiens, UniProt Q92847)
TEST DETAILS: SUPPLEMENTARY: Agonist activity at GSHR by FLIPR assay. Same assay as CHEMBL941945
pEC50: −log10 of the molar value.
PROPERTY: pEC50

>>> print(df.to_string())
                                     smiles  property  value_measured
0  COc1ccc(NS(=O)(=O)c2cccc3cccnc23)cc1N1C[C@@H](C)N[C@@H](C)C1     pEC50            6.40

(P) COc1ccc(N2C[C@@H](C)N[C@@H](C)C2)cc1NS(=O)(=O)c1ccc2c(c1)OCCN2C
(Q) COc1ccc(NS(=O)(=O)c2ccc(-c3cccs3)cc2)cc1N1C[C@@H](C)N[C@@H](C)C1
(R) C[C@@H]1CN(c2ccc(F)c(NS(=O)(=O)c3ccc(-c4ccoc4)cc3Cl)c2)C[C@H](C)N1
(S) Cc1ccc(N2C[C@@H](C)N[C@@H](C)C2)cc1NS(=O)(=O)c1ccc2ccccc2c1
(T) COc1ccc(NS(=O)(=O)c2cccc3ccccc23)cc1N1C[C@@H](C)N[C@@H](C)C1
*Q* Would you mind ranking these compounds by ascending pEC50? Form field (ranking): labels in requested order.
*A* P, T, R, S, Q
(P: 7.10, T: 7.50, R: 7.70, S: 8.30, Q: 9.00)

(I) C[C@@H]1CN(c2cc(NS(=O)(=O)c3ccc(-c4cccs4)cc3)ccc2C#N)C[C@H](C)N1
(II) COc1ccc(N2CCN[C@H](C)C2)cc1NS(=O)(=O)c1ccc(-c2cccs2)cc1
*Q* Which item exceeds the other in pEC50, I or II ? To answer, give the label that identifies your chosen option.
*A* II
(II: 7.50, I: 7.00)

---

ASSAYED TARGET: Growth hormone secretagogue receptor type 1 (Homo sapiens, UniProt Q92847)
TEST DETAILS: SUPPLEMENTARY: Agonist activity at GSHR by FLIPR assay. Same assay as CHEMBL941945
pEC50: −log10 of the molar value.
PROPERTY: pEC50

In [3]: df
Out[3]:
                                     smiles  property  value_measured
0  COc1ccc(NS(=O)(=O)c2ccc(Oc3ccccc3)cc2)cc1N1C[C@@H](C)N[C@@H](C)C1     pEC50            6.90
1  COc1ccc(N2C[C@@H](C)N[C@@H](C)C2)cc1NS(=O)(=O)c1cc(C)c(-c2cccc(C)n2)s1     pEC50            7.90
2  COc1ccc(NS(=O)(=O)c2ccc3ccccc3c2)cc1N1C[C@@H](C)N[C@@H](C)C1     pEC50            7.80
3  C[C@@H]1CN(c2ccc(O)c(NS(=O)(=O)c3ccc(-c4ccccn4)s3)c2)C[C@H](C)N1     pEC50            7.60

(1) COc1ccc(N2C[C@@H](C)N[C@@H](C)C2)cc1NS(=O)(=O)c1ccc(-c2cc(C)cs2)cc1F
(2) Cc1ccc(N2C[C@@H](C)N[C@@H](C)C2)cc1NS(=O)(=O)c1cccc2ccccc12
(3) COc1ccc(N2C[C@@H](C)N[C@@H](C)C2)cc1NS(=O)(=O)c1ccc(-c2cc(C)cs2)nc1
(4) COc1ccc(Oc2cccc(S(=O)(=O)Nc3cc(N4C[C@@H](C)N[C@@H](C)C4)ccc3OC)c2)cc1
*Q* Arrange the 4 compounds from largest to smallest pEC50. Form field (ranking): labels in requested order.
*A* 1, 3, 2, 4

---

ASSAYED TARGET: Growth hormone secretagogue receptor type 1 (Homo sapiens, UniProt Q92847)
TEST DETAILS: SUPPLEMENTARY: Agonist activity at GSHR by FLIPR assay. Same assay as CHEMBL941945
PROPERTY: EC50 (nM)

Take a look at these entries with their results.
                                     smiles  value_measured
0  COc1ccc(NS(=O)(=O)c2ccc(-c3cc(C)cs3)s2)cc1N1C[C@@H](C)N[C@@H](C)C1           0.794
1  COc1ccc(N2C[C@@H](C)N[C@@H](C)C2)cc1NS(=O)(=O)c1ccc(-c2ccco2)cc1C               2
2  Cc1cc(-c2ccoc2)ccc1S(=O)(=O)Nc1cc(N2C[C@@H](C)N[C@@H](C)C2)ccc1F            31.6
3  COc1ccc(N2C[C@@H](C)N[C@@H](C)C2)cc1NS(=O)(=O)c1csc2ccccc12              10

(I) COc1ccc(NS(=O)(=O)c2ccc(-c3ccsc3)s2)cc1N1C[C@@H](C)N[C@@H](C)C1
(II) C[C@@H]1CN(c2cccc(NS(=O)(=O)c3ccc4ccccc4c3)c2)C[C@H](C)N1
(III) COc1ccc(N2C[C@@H](C)N[C@@H](C)C2)cc1NS(=O)(=O)c1ccc(-c2ccc(C)o2)nc1
(IV) COc1ccc(NS(=O)(=O)c2ccc(-c3cccs3)c(F)c2)cc1N1C[C@@H](C)N[C@@H](C)C1
*Q* Would you mind ranking these compounds by ascending EC50? Form field (ranking): labels in requested order.
*A* I, IV, III, II

---

ASSAYED TARGET: Growth hormone secretagogue receptor type 1 (Homo sapiens, UniProt Q92847)
TEST DETAILS: SUPPLEMENTARY: Agonist activity at GSHR by FLIPR assay. Same assay as CHEMBL941945
PROPERTY: EC50 (nM)

Take a look at these entries with their results.
In [3]: df
Out[3]:
                                     smiles  property  value_measured
0  COc1ccc(N2C[C@@H](C)N[C@@H](C)C2)cc1NS(=O)(=O)c1ccc2c(c1)CCC(C)(C)O2      EC50            31.6
1  COc1ccc(NS(=O)(=O)c2ccc(Br)cc2C)cc1N1C[C@@H](C)N[C@@H](C)C1      EC50            39.8
2  C[C@@H]1CN(c2ccc(F)c(NS(=O)(=O)c3ccc(-c4cccs4)cc3Cl)c2)C[C@H](C)N1      EC50            7.94
3  COc1cc(-c2cc(C)cs2)ccc1S(=O)(=O)Nc1cccc(N2C[C@@H](C)N[C@@H](C)C2)c1      EC50            6.31

(I) COc1ccc(N2C[C@@H](C)N[C@@H](C)C2)cc1NS(=O)(=O)c1ccc(-c2ccccc2Cl)s1
(II) COc1cc(Br)ccc1S(=O)(=O)Nc1cc(N2C[C@@H](C)N[C@@H](C)C2)ccc1F
(III) COc1ccc(NS(=O)(=O)c2ccc(-c3cccc(C)n3)s2)cc1N1C[C@@H](C)N[C@@H](C)C1
(IV) COc1ccc(N2CCN[C@@H](C)C2)cc1NS(=O)(=O)c1ccc(-c2cccs2)cc1
*Q* Arrange the 4 compounds from largest to smallest EC50. Form field (ranking): labels in requested order.
*A* IV, II, I, III
